Target: Histone-lysine N-methyltransferase EHMT2 (Homo sapiens, UniProt Q96KQ7)
Sequence (Q96KQ7 whole entry): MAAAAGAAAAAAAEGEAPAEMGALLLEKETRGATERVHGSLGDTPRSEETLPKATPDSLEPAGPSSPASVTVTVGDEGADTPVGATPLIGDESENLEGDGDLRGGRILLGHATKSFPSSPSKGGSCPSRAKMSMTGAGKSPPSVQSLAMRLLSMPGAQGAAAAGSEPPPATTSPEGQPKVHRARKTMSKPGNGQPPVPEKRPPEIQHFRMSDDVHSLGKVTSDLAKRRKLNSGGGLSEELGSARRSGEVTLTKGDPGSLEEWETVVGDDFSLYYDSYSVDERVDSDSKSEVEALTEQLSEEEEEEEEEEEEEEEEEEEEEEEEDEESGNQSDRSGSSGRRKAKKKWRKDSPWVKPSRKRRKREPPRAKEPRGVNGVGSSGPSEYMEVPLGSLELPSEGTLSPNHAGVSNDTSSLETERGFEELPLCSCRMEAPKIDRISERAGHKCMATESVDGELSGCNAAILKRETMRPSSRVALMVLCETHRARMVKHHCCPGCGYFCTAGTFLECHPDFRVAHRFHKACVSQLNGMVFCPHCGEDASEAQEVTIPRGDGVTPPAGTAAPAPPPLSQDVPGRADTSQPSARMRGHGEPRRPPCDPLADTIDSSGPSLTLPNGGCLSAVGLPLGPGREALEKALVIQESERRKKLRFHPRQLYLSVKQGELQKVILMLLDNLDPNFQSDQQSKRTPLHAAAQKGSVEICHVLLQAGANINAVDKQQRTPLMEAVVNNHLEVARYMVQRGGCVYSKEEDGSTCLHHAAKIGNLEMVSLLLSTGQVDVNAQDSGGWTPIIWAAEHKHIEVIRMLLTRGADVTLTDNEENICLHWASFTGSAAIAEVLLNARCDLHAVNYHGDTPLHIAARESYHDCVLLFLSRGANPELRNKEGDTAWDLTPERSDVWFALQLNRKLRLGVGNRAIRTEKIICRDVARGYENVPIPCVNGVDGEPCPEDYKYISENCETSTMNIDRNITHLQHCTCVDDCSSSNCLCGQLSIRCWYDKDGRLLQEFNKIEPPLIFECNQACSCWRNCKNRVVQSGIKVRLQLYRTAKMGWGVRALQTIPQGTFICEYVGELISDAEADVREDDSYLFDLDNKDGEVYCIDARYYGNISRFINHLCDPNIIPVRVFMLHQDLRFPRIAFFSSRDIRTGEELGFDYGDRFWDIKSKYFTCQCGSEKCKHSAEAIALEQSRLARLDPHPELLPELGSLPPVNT
Experiment: Inhibition of G9a in human MDA-MB-231 cells assessed as reduction in H3K9me2 level after 2 days by immunofluorescence in-cell western analysis
parameter-measured: pIC50
pIC50 field: float, defined as -log10 of concentration (mol/L).

Fill in reported pIC50 for this entry: CNC(=O)CCCCC(=O)NCCNc1nc(NC2CCN(C)CC2)c2ccc(OC)cc2n1
4.33

Data origin, for the record: ChEMBL document CHEMBL4251690
